# pIC50 per entry
Biological target: human A2A receptors (Homo sapiens (Human), UniProt P29274)
Sequence (P29274 whole entry): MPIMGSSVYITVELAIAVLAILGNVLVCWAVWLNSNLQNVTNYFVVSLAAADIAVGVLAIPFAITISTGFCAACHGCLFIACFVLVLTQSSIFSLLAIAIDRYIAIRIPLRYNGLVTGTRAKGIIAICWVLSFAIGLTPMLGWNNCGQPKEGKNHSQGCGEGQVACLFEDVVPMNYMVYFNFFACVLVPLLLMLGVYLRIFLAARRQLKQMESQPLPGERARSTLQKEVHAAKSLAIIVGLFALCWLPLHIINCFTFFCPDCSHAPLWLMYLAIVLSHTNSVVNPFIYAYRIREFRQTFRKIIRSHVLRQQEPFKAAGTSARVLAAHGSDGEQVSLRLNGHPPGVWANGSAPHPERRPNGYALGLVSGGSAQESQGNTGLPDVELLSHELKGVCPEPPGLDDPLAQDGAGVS
Test: A2A antagonism in cAMP cell-based assay (LANCE cAMP, HEK293)
Details: HEK293 cells expressing human A2A receptor
Note: pIC50 values are expressed as the negative base-10 logarithm of concentration in M.

COMPOUND	ASSAY METRIC	REPORTED VALUE
COc1cc(F)cc2c1nc(N)n1nc(C3CC(C)CN(c4cnn(CC(C)(C)O)c4)C3)nc21 (single isomer, unassigned) [Example 159]	pIC50	9.00
COc1cc2nc(N)n3nc(C4CC(C)CN(c5cn(C(C)(C)CO)nc5C)C4)nc3c2cc1F (single isomer, unassigned) [Example 169]	pIC50	7.02
Cc1nn(C(C)C(C)O)cc1N1CCC[C@@H](c2nc3c4cc(F)cc(F)c4nc(N)n3n2)C1 (single isomer, unassigned) [Example 191]	pIC50	9.05
CC1CC(c2nc3c4cc(F)cc(F)c4nc(N)n3n2)CN(c2cnn(CC(C)(C)O)c2)C1 (single isomer, unassigned) [Example 164]	pIC50	8.72
CC(O)C(C)(C)n1cc(N2CCC[C@@H](c3nc4c5cc(F)cc(F)c5nc(N)n4n3)C2)cn1 (single isomer, unassigned) [Example 246]	pIC50	8.49

# evaluate next
Tell me pIC50 of Cc1nn(C(C)(C)CO)cc1N1CC(C)CC(c2nc3c4cc(F)cc(F)c4nc(N)n3n2)C1 (single isomer, unassigned) [Example 177] when tested on human A2A receptors (Homo sapiens (Human), UniProt P29274).
6.81
